Test system: Colon 26
experimental protocol: Growth inhibition of colon 26 adenocarcinoma cells by 50 %.
Format: functional, cell-based
run parameters: Mus musculus
Please use Criterion met for IC50 under 20 nM and Criterion not met for everything else, ties included.

Example cases with answers are listed next.
compound	class name
COc1ccc(/C=C(/C[N+](C)(C)C)c2cc(OC)c(OC)c(OC)c2)cc1.[I-]	Criterion not met
COc1ccc(/C=C(/C#N)c2cc(OC)c(OC)c(OC)c2)cc1	Criterion met
COc1ccc(/C(=C\c2cc(OC)c(OC)c(OC)c2)C(N)=O)cc1N	Criterion not met
COc1ccc(/C=C(\C#N)c2cc(OC)c(OC)c(OC)c2)cc1	Criterion not met
COc1ccc(/C=C(/C#N)c2ccc(OC)c(OC)c2)cc1N	Criterion met

Please look at the following compound next.
Lookup: I wonder whether `COc1ccc(/C(C#N)=C\c2cc(OC)c(OC)c(OC)c2)cc1N` has IC50 below 20 nM. Can you tell?
Found: Criterion not met
